Ref: the RNAGym collection of RNA variant scans (doi:10.7554/elife.80360)

B1: Hairpin Ribozyme (parent)
chain: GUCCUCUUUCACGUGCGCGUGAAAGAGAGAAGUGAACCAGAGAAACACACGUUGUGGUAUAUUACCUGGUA

- Variants of: B1
- Assay Comment: self-cleavage, relative activity (ratio to wild type); higher = more cleavage; co-transcriptional
Tag: yes (1) if measured self-cleavage is not below 0.4, no (0) if it is.

Sequence Change: A22C A28C
Assigned Class: no (0)

Sequence Change: C37G U70A
Assigned Class: yes (1)

Sequence Change: G13C U58C
Assigned Class: yes (1)

Sequence Change: C4G G42C
Assigned Class: no (0)

Sequence Change: U8G C65A
Assigned Class: yes (1)

Sequence Change: G13A A28C
Assigned Class: no (0)

Sequence Change: U8C A41U
Assigned Class: yes (1)

Sequence Change: U52A U60G
Assigned Class: yes (1)

Sequence Change: G21U A61U
Assigned Class: no (0)

Sequence Change: C46G C65U
Assigned Class: no (0)

Sequence Change: U8G A28G
Assigned Class: yes (1)

Sequence Change: C18U G40C
Assigned Class: no (0)

Sequence Change: C12A A36G
Assigned Class: yes (1)

Sequence Change: A26C G27A
Assigned Class: no (0)

Sequence Change: G29C U67G
Assigned Class: no (0)

Sequence Change: A23U A44C
Assigned Class: no (0)

Sequence Change: G29C C46A
Assigned Class: no (0)

Sequence Change: G25C A44G
Assigned Class: no (0)

Sequence Change: G21A A49U
Assigned Class: no (0)

Sequence Change: U20G A26C
Assigned Class: yes (1)

Sequence Change: A39G C65U
Assigned Class: no (0)

Sequence Change: A43U C50U
Assigned Class: no (0)
